Data provenance: ChEMBL document CHEMBL1201862

- System: U-251
- Test protocol: NCI tumour cell line growth inhibition, 48 h
Activity calls are given as the source filed them. Rule as the data show it: active = GI50 up to about 1.1 µM and inactive = higher.
This section presents molecules with their documented GI50 values.

Record excerpt, results attached:
{"Molecule": "C[C@H](CCC(=O)O)[C@H]1CC[C@H]2[C@@H]3[C@@H](O)C[C@@H]4C[C@H](O)CC[C@]4(C)[C@H]3CC[C@]12C [URSODIOL]", "Test target": "U-251", "Reported metric": "GI50", "Reported value": "> 100 µM (inactive)"}
{"Molecule": "O=C(N/N=C1/C(=O)c2c3ccccc3cc3cccc1c23)c1ccccc1", "Test target": "U-251", "Reported metric": "GI50", "Reported value": "31.6 µM (inactive)"}

Could you now consider this next molecule?
Query O=C(NC(Cc1ccccc1)P(=O)(O)c1ccccc1)OCc1ccccc1 (stereo not drawn) yields GI50 of > 100 µM (inactive)

###

- System: HL-60
- Test protocol: NCI tumour cell line growth inhibition, 48 h
Activity calls are given as the source filed them. Rule as the data show it: active = GI50 up to about 1.1 µM and inactive = higher. Square brackets hold non-standard residues; d marks the D form. Peptide text beside a SMILES is read from it.
Choose one outcome from this list and give only that: True (active), False (inactive)

{"Compound": "CC1C(=O)C(C)C(c2ccccc2)N(C)C1c1ccccc1 (stereo unspecified)", "Discrete label": "False"}

Please share the test call associated with O=C(NC(Nc1ccc(F)cc1)(C(F)(F)F)C(F)(F)F)C(C(F)(F)F)C(F)(F)F . True

Please share the test call associated with CCO/C=C(\C(=O)OC)S(=O)(=O)c1ccc(C)cc1 . True

Please share the test call associated with COC(=O)C1(C(=O)OC)N=C(C)OC1c1ccoc1 (stereo unspecified) . False

Please share the test call associated with CC(C)C[C@H](NC(=O)[C@H](CC(C)C)NC(=O)[C@@H](Cc1c[nH]c2ccccc12)NC(=O)[C@H](Cc1ccccc1)NC(=O)[C@@H](Cc1c[nH]c2ccccc12)NC(=O)[C@H](CCC(N)=O)NC(=O)[C@@H](CCC(N)=O)NC(=O)[C@@H]1CCCN1C(=O)[C@@H](CCCCN)NC(=O)[C@H]1CCCN1C(=O)[C@H](N)CCCN=C(N)N)C(N)=O (H-[dR][dP][dK]P[dQ]Q[dW]F[dW]LL-NH2) . False

Please share the test call associated with COc1ccc(-c2cc(-c3ccccc3)nc(N)n2)c(O)c1 . False

Please share the test call associated with O=C(CSc1nc2ccc(I)cc2c(=O)n1Cc1ccccc1)N/N=C/c1ccccc1 . False

###

- System: XF498
- Test protocol: NCI tumour cell line growth inhibition, 48 h
Active and inactive are the calls of the source. Cut-off read from the data, not from the text of the source: active = GI50 up to about 1.1 µM and inactive = higher.
Reported metric: GI50

{"Mol smiles": "COc1ccc(NC(=O)C/C(C)=N\\N=C(N)N)c([N+](=O)[O-])c1", "Reported metric": "GI50", "Reported value": "> 100 µM (inactive)"}
{"Mol smiles": "N#Cc1c([N+](=O)[O-])cc(C(F)(F)F)cc1[N+](=O)[O-]", "Reported metric": "GI50", "Reported value": "1.83 µM (inactive)"}

Could you now consider this next compound?
Query O=C(CCN(C(=O)O)S(=O)(=O)c1ccc(NC(=O)c2ccccc2)cc1)Nc1ccccc1 yields GI50 of > 100 µM (inactive)

###

This section presents molecules with their documented GI50 values.
- System: HOP-92
- Test protocol: NCI tumour cell line growth inhibition, 48 h
Activity calls are given as the source filed them. Cut-off read from the data, not from the text of the source: active = GI50 up to about 1.1 µM and inactive = higher.

Record excerpt, results attached:
{"Molecule": "N#CCc1cccc(CC#N)c1Br", "GI50": "45.2 µM (inactive)"}
{"Molecule": "CC(=O)Nc1ncc(Sc2ccccc2C(=O)O)s1", "GI50": "> 100 µM (inactive)"}
{"Molecule": "CCn1c2ccccc2n2c(=O)c3c(c(C#N)c12)CCCC3", "GI50": "> 100 µM (inactive)"}
{"Molecule": "CN1C(c2ccccc2)CC(=Nc2ccccc2)CC1c1ccccc1 (stereo not drawn)", "GI50": "7.78 µM (inactive)"}
{"Molecule": "CCc1n[nH]c(=O)n1/N=C(\\C)c1ccc([N+](=O)[O-])cc1", "GI50": "> 100 µM (inactive)"}

Could you now consider this next molecule?
Query CNc1nc2c(C)ccc3nc(N(C)C)nc-3c2n1C yields GI50 of > 10 µM (inactive)

###

- Test system: 786-0
- Test protocol: NCI tumour cell line growth inhibition, 48 h
Active and inactive are the calls of the source. Cut-off read from the data, not from the text of the source: active = GI50 up to about 1.1 µM and inactive = higher.
Choose one outcome from this list and give only that: active, inactive

{"Compound": "O=C(O)COc1c(Cl)cc(Cl)c2cccnc12", "Discrete label": "inactive"}
{"Compound": "O=C(Nc1ccccc1-c1nn(CN2CCNCC2)c(=S)n(CN2CCNCC2)c1=O)C(F)(F)F", "Discrete label": "inactive"}
{"Compound": "ON1CCc2c([nH]c3ccccc23)C1c1ccc(Cl)cc1 (centres undefined)", "Discrete label": "inactive"}

Please share the test call associated with NC(=O)NC(=O)c1cccc(NC(=O)CCl)c1 . active

###

- Tested on: EKVX
- Test protocol: NCI tumour cell line growth inhibition, 48 h
Calls of active or inactive are those of the source. No stated cut-off is given here; in the data, active = GI50 up to about 1.1 µM and inactive = higher.
Choose one outcome from this list and give only that: Yes = active, No = inactive

{"Mol smiles": "CC1=CC[C@H](C[C@H](C#CCCCC2OCCO2)O[Si](C(C)C)(C(C)C)C(C)C)C(=O)CC1", "Discrete label": "No"}
{"Mol smiles": "C=C(Cl)[C@@](Cl)(CBr)CC[C@@H](Br)C(C)(C)Cl", "Discrete label": "No"}
{"Mol smiles": "O=S(=O)(O)CCCc1cccc2ccccc12", "Discrete label": "No"}

Now take the following molecule into account.
Please share the test call associated with CCC/C(=N\NC(=S)N1CC2CCC(CC2)C1)c1ccccn1 . Yes

###

- Test system: DU-145
- Test protocol: NCI tumour cell line growth inhibition, 48 h
The source made the active and inactive calls. Rule as the data show it: active = GI50 up to about 1.1 µM and inactive = higher.
Reported metric: GI50

{"Compound": "CC[C@H]1CN2CCc3cc(OC)c(OC)cc3[C@@H]2C[C@@H]1C[C@H]1NCCc2c1[nH]c1ccc(O)cc21", "GI50": "< 0.01 µM (active)"}
{"Compound": "CC(C)(O)[C@@H]1CC[C@](C)(C2[C@@H](O)C[C@@]3(C)C4C[C@H](OC5OCC(O)C(O)C5O)[C@H]5C(C)(C)[C@@H](OC6OCC(O)C(O)C6OC6OCC(O)C(O)C6O)CC[C@@]56C[C@@]46CC[C@]23C)O1 (some centres undefined)", "GI50": "> 100 µM (inactive)"}

Query O=c1[nH][nH]c(=O)n1Cc1ccccc1Cn1c(=O)[nH][nH]c1=O yields GI50 of > 100 µM (inactive)

Query CC1(C)CC(=O)c2c(nc3c(ccc4ccccc43)c2-c2ccc(NC(=O)CCC(=O)Nc3ccc(-c4c5c(nc6c4ccc4ccccc46)CC(C)(C)CC5=O)cc3)cc2)C1 yields GI50 of > 100 µM (inactive)

Query CCCCCC1CC=CC(=O)O1 (centres undefined) yields GI50 of 17.4 µM (inactive)

###

- System: DU-145
- Test protocol: NCI tumour cell line growth inhibition, 48 h
The source made the active and inactive calls. No stated cut-off is given here; in the data, active = GI50 up to about 1.1 µM and inactive = higher.
Choose one outcome from this list and give only that: true (1) (active), false (0) (inactive)

Consider the worked cases shown below.
{"Compound": "O=C1NN(Cc2ccccc2)C(=O)N2CCC[C@@H]12", "Discrete label": "false (0)"}
{"Compound": "CNc1nc2c(C)ccc3nc(N(C)C)nc-3c2n1C", "Discrete label": "false (0)"}

Please share the test call associated with COCN1C(=O)[C@@H]2CCCN2C(=O)c2ccc([N+](=O)[O-])cc21 . false (0)

Please share the test call associated with CC(=O)OCC1OC(OC2CC3C(C)(C)C(=O)CC[C@]3(C)C3CC[C@]45C[C@]4(CCC5[C@@H](C)CC(O)C(O)C(C)(C)O)[C@]23C)C(O)C(O)C1O (stereo not given in full) . false (0)

Please share the test call associated with O=[N+]([O-])c1ccc(/C=C(/c2ccc([N+](=O)[O-])o2)S(=O)(=O)c2ccccc2)o1 . false (0)

Please share the test call associated with C(CCc1nnc2c(n1)CCCC2)Cc1nnc2c(n1)CCCC2 . false (0)

Please share the test call associated with Cc1c(/C=N/NC(=S)Nc2ccccc2)c(=O)n(-c2ccccc2)n1C . false (0)

Please share the test call associated with COc1ccc(OC2OC(CO)C(OCc3ccccc3)C(OCc3ccccc3)C2OCc2ccccc2)cc1 (stereo not given) . false (0)

Please share the test call associated with CC(C)=NNc1cnnc2ccc([N+](=O)[O-])cc12 . false (0)

Please share the test call associated with COC(=O)[C@@H]1C[C@H]([Se]c2ccccc2)CN1S(=O)(=O)c1ccc(C)cc1 . false (0)

Please share the test call associated with CCN(CC)CC(O)CNc1ccc(NCC(O)CCl)c2c1C(=O)c1ccccc1C2=O (stereo not given) . false (0)

Please share the test call associated with Oc1cccc(-c2cn3cc(Cl)ccc3n2)c1 . false (0)

Please share the test call associated with C/C(=N\NC(N)=S)c1ccc2c(c1)Sc1ccccc1O2 . false (0)
